# assay-explanation: chemical genetic growth profiling, strain panel (AID 1159580);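 further: tested at 20 µM; growth read once vehicle control cultures reached saturation at 30 °C; 1 = growth at the plate median or of vehicle wells; lower values mean less growth of the strain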
# condition-notes: S. cerevisiae deletion strains, growth OD, locus YLR085C, strain ARP6
Out of some 5,500 compounds screened, about 2,000 (36%) were called active. Not shown: some 18% with an inconclusive outcome. No stated cut-off is given here; in the data, active means normalized growth mostly below about 0.91 (no sharp cut-off); inconclusive means no clear call, values can overlap the other calls; inactive means mostly above about 0.92. The list shows a part of the results.
Hi! Could you answer with just one of these? active, inactive

Check the results log: what was the call for `O=C(O)CSCCOc1ccccc1` ?
inactive

Check the results log: what was the call for `CC(=O)Nc1cccc(-n2nnc(SCc3ccccc3)n2)c1` ?
inactive

Check the results log: what was the call for `Cc1cc(NC(=O)C(Cl)(Cl)Cl)n(-c2ccccc2)n1` ?
inactive

Check the results log: what was the call for O=C(CSc1ccc(C(F)(F)F)cn1)N1CCc2c([nH]c3ccccc23)C1C(F)(F)F (stereo unspecified) ?
inactive

Check the results log: what was the call for CC12CCC(C1)C(C)(C)C2NC(=O)c1cccs1 (stereo unspecified) ?
inactive

Check the results log: what was the call for O=C(O)COCC(=O)N1CCc2c([nH]c3ccccc23)C1C(F)(F)F (stereo unspecified) ?
active

Check the results log: what was the call for `O=C(c1ccccc1)C1CCN(c2ccc(C(F)(F)F)cc2[N+](=O)[O-])CC1` ?
inactive

Check the results log: what was the call for `COc1ccccc1C1CCN(C(=O)c2ccc(F)cc2)CC1` ?
inactive

Check the results log: what was the call for `CNC(=S)NN=C(N)c1ccccn1` ?
active

Check the results log: what was the call for O=C(O)CSCC(=O)N1CCc2c([nH]c3ccccc23)C1C(F)(F)F (stereo unspecified) ?
inactive

Check the results log: what was the call for `FC(F)(F)Oc1ccc(-c2noc(CSc3ccc(Br)cc3)n2)cc1` ?
inactive

* * *

# assay-explanation: chemical genetic growth profiling, strain panel (AID 1159580);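 further: tested at 20 µM; growth read once vehicle control cultures reached saturation at 30 °C; 1 = growth at the plate median or of vehicle wells; lower values mean less growth of the strain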
# condition-notes: S. cerevisiae deletion strains, growth OD, locus YLR258W, strain gsy2, hits give low values
Screen size: about 5,500 compounds; about 2,000 (36%) were called active. Not shown: some 18% with an inconclusive outcome. Some of the results follow.
Examples of compounds with documented normalized growth follow.
Respond numerically, and do not add a unit to the figure.

These recorded examples may help you get a feel for the data.
# compound, normalized growth
measured = [
    ("COc1ccc(-c2cc(=O)c3c(O)cc(OC)c(OC)c3o2)c(OC)c1", 1.01),
    ("OCCN(CCO)c1nc(N2CCCCC2)c2nc(N(CCO)CCO)nc(N3CCCCC3)c2n1", 0.997),
    ("CCC1(c2ccc(N)cc2)CCC(=O)NC1=O (configuration not stated)", 0.992),
]

Requested read-out: normalized growth. Entry: CN1CCCC(n2nc(Cc3ccc(Cl)cc3)c3ccccc3c2=O)CC1 (configuration not stated)
1.02

Requested read-out: normalized growth. Entry: `Cn1cc[nH]c1=S`
0.979

Requested read-out: normalized growth. Entry: CC(C)CC1C(=O)N2CCC[C@H]2C2(O)O[C@](NC(=O)C3C=C4c5cccc6[nH]c(Br)c(c56)C[C@H]4N(C)C3)(C(C)C)C(=O)N12 (some centres not stated)
0.997

* * *

Examples of compounds with documented normalized growth follow.
# assay-explanation: chemical genetic growth profiling, strain panel (AID 1159580);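 further: tested at 20 µM; growth read once vehicle control cultures reached saturation at 30 °C; 1 = growth at the plate median or of vehicle wells; lower values mean less growth of the strain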
# condition-notes: S. cerevisiae deletion strains, growth OD, locus YKL085W, strain MDH1, hits give low values
Out of some 5,500 compounds screened, about 2,000 (36%) were called active. About 18% were inconclusive and are not listed. Some of the results follow.
Respond numerically, and do not add a unit to the figure.

# compound, numeric-value
measured = [
    ("COc1ccc(C[C@H]2NC[C@H](O)[C@H]2OC(C)=O)cc1", 1.01),
]

Requested read-out: normalized growth. Entry: CO[C@H]1C[C@H](O[C@H]2[C@H](C)[C@@H](OC3O[C@H](C)C[C@H](N(C)C)[C@H]3O)[C@@H](C)C[C@]3(CO3)C(=O)[C@H](C)[C@@H](O)[C@@H](C)[C@@H](C)OC(=O)[C@@H]2C)O[C@@H](C)[C@@H]1O (stereo partly drawn)
0.992

Requested read-out: normalized growth. Entry: CC(=O)O[C@H]1C(=O)[C@@]2(C)C([C@H](OC(=O)c3ccccc3)[C@]3(O)C[C@H](OC(=O)[C@H](O)[C@@H](NC(=O)c4ccccc4)c4ccccc4)C(C)=C1C3(C)C)[C@]1(OC(C)=O)CO[C@@H]1C[C@@H]2O (stereo partly drawn)
0.884

Requested read-out: normalized growth. Entry: `O=C1C[C@@H](c2ccccc2)Oc2cc(O)cc(O)c21`
0.929
